Where do these numbers come from? They come from patent US12336991B2.

molecular target: FXa (Homo sapiens); assay: Determination of selectivity: FXa inhibition, chromogenic substrate S2765 assay; assay type: biochemical; conditions: fold selectivity for FXIIa over FXa
Sequence (P00742 235-488 limits assumed): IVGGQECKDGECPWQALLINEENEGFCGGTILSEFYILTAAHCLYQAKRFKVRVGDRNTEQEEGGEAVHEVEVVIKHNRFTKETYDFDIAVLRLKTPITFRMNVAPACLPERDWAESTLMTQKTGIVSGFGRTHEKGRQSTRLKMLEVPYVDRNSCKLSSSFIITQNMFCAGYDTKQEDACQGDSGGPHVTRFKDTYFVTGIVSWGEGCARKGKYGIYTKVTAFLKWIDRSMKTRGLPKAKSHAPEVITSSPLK
Sequence (P00742 41-179 partner limits assumed): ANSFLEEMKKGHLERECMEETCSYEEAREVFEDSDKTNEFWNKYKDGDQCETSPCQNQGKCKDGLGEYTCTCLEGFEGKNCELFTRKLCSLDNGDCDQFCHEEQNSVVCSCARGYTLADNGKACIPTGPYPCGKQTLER
result type: FXa (human)/FXIIa alpha (human)

- smiles structure: "COc1ccc(C[C@@H]2C[C@@H](C(=O)NCc3ccc4c(c3)nnn4C)N(C(=O)[C@H](N)CCC(=O)N3CCNC[C@H]3C)C2)cc1"
  experimental result: "∘∘∘"
- smiles structure: "Cn1ncc2cc(CNC(=O)[C@@H]3C[C@@H](Cc4cccnc4)CN3C(=O)[C@H](N)CCC(=O)N3CCCC3)ccc21"
  experimental result: "∘∘∘"
- smiles structure: "Nc1nccc2cc(CNC(=O)[C@@H]3CCCN3C(=O)[C@H](N)CCc3ccccc3)ccc12"
  experimental result: "∘∘"
